target: EPHB2 (UniProt P29323); assay: phosphorylation enrichment, bacterial display (enrichment ratio); higher = better substrate or ligand; peptides without Tyr show the background
Sequence (P29323 whole entry, looked up): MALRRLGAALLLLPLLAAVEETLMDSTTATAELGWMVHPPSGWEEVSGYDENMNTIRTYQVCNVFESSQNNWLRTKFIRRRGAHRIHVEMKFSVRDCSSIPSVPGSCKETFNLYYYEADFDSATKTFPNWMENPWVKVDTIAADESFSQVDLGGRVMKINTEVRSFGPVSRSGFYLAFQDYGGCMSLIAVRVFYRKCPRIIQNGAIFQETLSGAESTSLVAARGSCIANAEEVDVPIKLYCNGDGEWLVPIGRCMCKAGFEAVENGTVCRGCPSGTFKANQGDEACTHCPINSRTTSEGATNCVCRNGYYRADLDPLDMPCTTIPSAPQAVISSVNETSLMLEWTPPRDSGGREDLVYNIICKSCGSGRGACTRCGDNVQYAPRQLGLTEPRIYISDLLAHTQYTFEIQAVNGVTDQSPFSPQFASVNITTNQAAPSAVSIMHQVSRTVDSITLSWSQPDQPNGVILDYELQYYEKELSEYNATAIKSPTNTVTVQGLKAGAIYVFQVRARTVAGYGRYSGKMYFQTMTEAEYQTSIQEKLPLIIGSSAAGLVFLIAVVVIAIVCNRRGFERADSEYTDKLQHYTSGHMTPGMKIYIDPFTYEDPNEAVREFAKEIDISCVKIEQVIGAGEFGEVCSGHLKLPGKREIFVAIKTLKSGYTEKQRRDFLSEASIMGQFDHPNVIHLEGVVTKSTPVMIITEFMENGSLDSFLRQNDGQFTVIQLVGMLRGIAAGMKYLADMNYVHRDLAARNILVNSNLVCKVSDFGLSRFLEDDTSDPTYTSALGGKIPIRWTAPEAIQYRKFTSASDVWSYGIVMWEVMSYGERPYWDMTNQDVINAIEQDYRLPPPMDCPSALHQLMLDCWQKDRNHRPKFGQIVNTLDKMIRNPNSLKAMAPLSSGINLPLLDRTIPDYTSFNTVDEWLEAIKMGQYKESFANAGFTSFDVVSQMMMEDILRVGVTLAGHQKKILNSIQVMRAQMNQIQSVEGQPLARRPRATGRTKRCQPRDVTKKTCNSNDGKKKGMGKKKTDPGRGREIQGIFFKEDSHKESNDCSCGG
Binary classification by phosphorylation enrichment, with 0.7 as an inclusive lower bound for Y; all other cases are N.

A selection of reference data follows.
orderedResidues	labelClass
GTCGGYCSVLG [RAB18_Y202_A198T]	N
GDYYCYLAEVA [YWHAG_Y133_R132C]	Y
KQLYAYKMLMA [TMC2_Y209]	N
MALDRYVAICK [OR2B11_Y127]	N
QFKDKYLAKHN [CASK_Y712_YF]	N
LPHVIYCRLWC [SMAD2_Y128_R133C]	Y
RFFTTYDTNGR [CLCA1_Y665_YF]	Y
RSFLSYFTSHV [NEFL_Y442_P440L_YF]	Y

Prompt line: Check if phosphorylation enrichment >= 0.7 (inclusive). Item: SPPPAFTPMSG [ERBB4_Y1056_Y1056F]
Response line: N

Prompt line: Same read-out for LARHMYDKEFF [MET_Y1230_D1228H_YF] ?
Response line: N

Prompt line: Same read-out for PNATLYKMTSI [SERPINA7_Y40_S43T] ?
Response line: Y

Prompt line: Same read-out for WVFNHYRCIIW [BRCA2_Y2624_W2626C_YF] ?
Response line: N

---

target: SHP2-C SH2; experiment: SH2 binding enrichment of the phosphorylated peptide, bacterial display (enrichment ratio); higher = better substrate or ligand; peptides without Tyr show the background;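 also: peptide library displayed on the E. coli surface as eCPX fusions, selected cells deep-sequenced, score is each peptide's frequency after selection divided by its frequency in the input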
assayMetric: SH2 binding enrichment

Take a look at these entries with their results.
orderedResidues	systemUnderTest	assayMetric	observedResult
VDTFWYKFLKR [EPM2A_Y86]	SHP2-C SH2	SH2 binding enrichment	1.04
NSNSDYVDVLP [SH2D1B_Y127]	SHP2-C SH2	SH2 binding enrichment	0.43
TLKVGYKEKQR [EPHA3_Y659_T660K]	SHP2-C SH2	SH2 binding enrichment	1.14
GRVYVYHLSEQ [ITGAE_Y551_R552H]	SHP2-C SH2	SH2 binding enrichment	6.94

Prompt line: Requested read-out: SH2 binding enrichment. Entry: KELAPYDENRF [RPS19_Y48_W52R]
Response line: 1.39

Prompt line: Same read-out for FGSGNYNVFGN [HNRNPA2B1_Y300_D302V_YF] ?
Response line: 0.805

Prompt line: Same read-out for TFYQMYDKGLV [IARS2_Y231] ?
Response line: 1.29

---

Reported phosphorylation enrichment by item:
target: Fyn (UniProt P06241); assay: phosphorylation enrichment, bacterial display (enrichment ratio); higher = better substrate or ligand; peptides without Tyr show the background
Sequence (P06241 whole entry, looked up): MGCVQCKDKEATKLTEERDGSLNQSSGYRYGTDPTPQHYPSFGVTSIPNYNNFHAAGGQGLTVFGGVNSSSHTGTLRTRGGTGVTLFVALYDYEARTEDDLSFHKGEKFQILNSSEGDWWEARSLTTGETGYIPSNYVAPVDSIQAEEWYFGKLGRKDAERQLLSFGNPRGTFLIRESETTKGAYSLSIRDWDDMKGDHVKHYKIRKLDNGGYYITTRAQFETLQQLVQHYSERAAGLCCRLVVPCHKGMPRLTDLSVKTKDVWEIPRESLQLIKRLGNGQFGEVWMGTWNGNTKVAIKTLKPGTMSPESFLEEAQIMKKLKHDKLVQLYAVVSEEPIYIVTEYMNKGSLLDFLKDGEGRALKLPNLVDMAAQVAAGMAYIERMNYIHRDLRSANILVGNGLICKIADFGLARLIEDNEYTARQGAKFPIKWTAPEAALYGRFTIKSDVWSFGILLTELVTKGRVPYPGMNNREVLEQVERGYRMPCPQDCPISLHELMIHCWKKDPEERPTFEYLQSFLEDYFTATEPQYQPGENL
No unit in the answer, only the number.

orderedResidues	phosphorylation enrichment
RLSVDCGKKSK [TUBA4A_Y161_Y161C]	0.551

Prompt line: Requested read-out: phosphorylation enrichment. Entry: GFRVFYTPDSR [PTPRF_Y451_YF]
Response line: 0.468

Prompt line: Same read-out for PNATLYKMTSI [SERPINA7_Y40_S43T] ?
Response line: 0.604

Prompt line: Same read-out for DVFVSYDCGKS [SORL1_Y139_Y141C_YF] ?
Response line: 0.495

Prompt line: Same read-out for EGDGVYTLNDE [HP_Y125_N129D] ?
Response line: 4.51

Prompt line: Same read-out for NSIGNYYKPWF [DHCR24_Y299] ?
Response line: 0.568

Prompt line: Same read-out for FGSGNYNVFGN [HNRNPA2B1_Y300_D302V_YF] ?
Response line: 0.396

Prompt line: Same read-out for TTPGPYRSIYF [MPG_Y71] ?
Response line: 0.641

Prompt line: Same read-out for LTYHMYADPNI [SOS1_Y618_F623I] ?
Response line: 6.07

Prompt line: Same read-out for EGNERYEGYCV [GRIA3_Y451] ?
Response line: 0.544

Prompt line: Same read-out for ISSLRYELLEE [TRPC6_Y896] ?
Response line: 0.511

Prompt line: Same read-out for RHPLDYLRQFP [NARS2_Y138_E137D_YF] ?
Response line: 0.511

Prompt line: Same read-out for ESLSSYRESAK [APOC2_Y47_W48R] ?
Response line: 0.342

Prompt line: Same read-out for MSLRSYGSREG [APC_Y96] ?
Response line: 0.398

Prompt line: Same read-out for STGSRYQPLAS [NCAPD2_Y1325] ?
Response line: 0.433

Prompt line: Same read-out for HFGNNYTDVLQ [MACC1_Y803_R804T_YF] ?
Response line: 0.517

Prompt line: Same read-out for SLIERYEPSET [PLCD1_Y258] ?
Response line: 0.502

Prompt line: Same read-out for IRKKFYRAILE [CHD7_Y1218_Q1214R_YF] ?
Response line: 0.57

Data provenance: the supplement of paper PMC10065799
